# System: L1210 leukemia ip in BDF1 mice, survival T/C
# experiment.notes: NCI In Vivo Anticancer Drug Screen. Data for tumor model L1210 Leukemia (intraperitoneal) in B6D2F1 (BDF1) mice
# condition.notes: endpoint: mean survival time; dose: 100.0 mg/kg/injection; schedule: Q01DX009 (ip); vehicle: Klucel (hydroxypropylcellulose) (HPC); higher = longer survival
Inconclusive results and toxic doses are left out.
measurement.type: T/C

For orientation, consider the following solved cases.
CC(=O)CC(=O)Nc1ccc(Cl)cc1Cl :: 100 % of control
CCCCCCCCCCCCCCC1CC(=O)OC1=O (centres undefined) :: 92 % of control
NC(=O)NC1C(c2ccccc2)=NOC1C(N)=O (centres undefined) :: 93 % of control

Proceeding to the next molecule to report its T/C.
Lab note: Cc1ccc(NC(N)=O)cc1Cl gave T/C of 105 % of control

Recorded values, source PubChem BioAssay AID248.
